Molecular target: T1, human activated Protein C (human, Light chain (chain 1): the Gla domain holds gamma-carboxyglutamates, from memory at pos 6, 7, 14, 16, 19, 20, 25, 26 and 29, written E. Pos 71 is beta-hydroxy-Asp, written D. N-glycans are present. …)
T1 construct: also called aPC; APC
T1 light: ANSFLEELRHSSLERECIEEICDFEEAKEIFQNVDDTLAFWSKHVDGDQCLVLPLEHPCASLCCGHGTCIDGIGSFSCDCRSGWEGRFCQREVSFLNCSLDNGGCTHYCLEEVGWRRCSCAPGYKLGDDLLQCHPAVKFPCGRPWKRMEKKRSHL
T1 heavy: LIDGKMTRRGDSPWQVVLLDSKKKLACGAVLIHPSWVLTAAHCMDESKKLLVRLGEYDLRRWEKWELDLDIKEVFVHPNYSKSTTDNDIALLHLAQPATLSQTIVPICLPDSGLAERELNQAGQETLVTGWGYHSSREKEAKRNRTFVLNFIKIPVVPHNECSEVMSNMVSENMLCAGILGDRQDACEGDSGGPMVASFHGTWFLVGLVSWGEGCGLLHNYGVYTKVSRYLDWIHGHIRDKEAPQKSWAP
Experiment: aPC-ELISA, human aPC coated, IgG titrated
propertyName: pEC50
Scale explanation: pEC50 corresponds to minus log10 of a concentration expressed in moles per litre.

TPP-3658 (HU1573-V1-hIgG2Kappa) (antibody, V domains shown, also called TPP-3658 VK7-3) VH: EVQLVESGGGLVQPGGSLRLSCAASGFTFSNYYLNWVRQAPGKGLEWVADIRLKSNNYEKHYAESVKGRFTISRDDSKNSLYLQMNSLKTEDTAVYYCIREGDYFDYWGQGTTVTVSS VL: DIVLTQSPASLAVSPGQRATITCKASESVDSFGATFMHWYQQKPGQPPKLLIYLASNLESGVPARFSGSGSGTDFTLTINPVEANDTANYYCQQNNEDPYTFGQGTKLEIKR :: 9.19
TPP-3639 (HU1573-V4-hIgG2Kappa) (antibody, V domains shown, also called TPP-3639 VK7-3) VH: EVQLVESGGGLVQPGGSLRLSCAASGFTFSSYYMNWVRQAPGKGLEWVADIRLKSNNYEKHYADSVKGRFTISRDNAKNSLYLQMNSLRAEDTAVYYCAREGDYFDYWGQGTLVTVSS VL: DIVLTQSPASLAVSPGQRATITCRASESVDSFGATFMHWYQQKPGQPPKLLIYLASNLESGVPARFSGSGSGTDFTLTINPVEANDTANYYCQQNNEDPYTFGQGTKLEIKR :: 9.38
TPP-3657 (HU1573-V2-hIgG2Kappa) (antibody, V domains shown, also called TPP-3657 VK7-3) VH: EVQLVESGGGLVQPGGSLRLSCAASGFTFSNYYLNWVRQAPGKGLEWVADIKSNNYEKHYAESVKGRFTISRDNAKNSLYLQMNSLRAEDTAVYYCAREGDYFDYWGQGTLVTVSS VL: DIVLTQSPASLAVSPGQRATITCKASESVDSFGATFMHWYQQKPGQPPKLLIYLASNLESGVPARFSGSGSGTDFTLTINPVEANDTANYYCQQNNEDPYTFGQGTKLEIKR :: 9.37
TPP-3356 (H1573VK2-VH1Cgl1-hIgG2Kappa) (antibody, V domains shown, also called TPP-3356 VK2D-29) VH: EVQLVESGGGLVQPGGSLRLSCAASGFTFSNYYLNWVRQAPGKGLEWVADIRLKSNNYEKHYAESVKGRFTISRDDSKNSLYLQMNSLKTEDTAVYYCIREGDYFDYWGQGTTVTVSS VL: DIVMTQTPLSLSVTPGQPASISCKASESVDSFGATFMHWYLQKPGQPPQLLIYLASNLESGVPDRFSGSGSGTDFTLKISRVEAEDVGVYYCQQNNEDPYTFGQGTKLEIKR :: 9.30

# input for lookup
Given the binder TPP-3656 (HU1573-V3-hIgG2Kappa) (antibody, V domains shown, also called TPP-3656 VK7-3) VH: EVQLVESGGGLVQPGGSLRLSCAASGFTFSNYYLNWVRQAPGKGLEWVGDIRLKSNNYEKHYAESVKGRFTISRDDSKNSLYLQMNSLKTEDTAVYYCAREGDYFDYWGQGTLVTVSS VL: DIVLTQSPASLAVSPGQRATITCKASESVDSFGATFMHWYQQKPGQPPKLLIYLASNLESGVPARFSGSGSGTDFTLTINPVEANDTANYYCQQNNEDPYTFGQGTKLEIKR , what is its reported pEC50? 9.17
